# measurement_description: Comparative stability of aspartame and aspartame ethoid in PBS solution (HPLC-MS)
# Assay type: physicochemical
# experimental_setup: 65° C., PBS pH 7.5
Residues, ends and D or L forms follow the SMILES beside them.
measured_metric: half-life (h)

A. COC(=O)[C@H](Cc1ccccc1)NC(=O)[C@@H](N)CC(=O)O [Aspartame, L-aspartyl-L-phenylalanine methyl ester, reference compound] (H-Asp-Phe-OMe)
B. COC(=O)C(Cc1ccccc1)OCC(N)CC(=O)O (centres unmarked)
Problem: For the pair A and B , which member has the lower half-life number? Let me know the label of the one you choose.
Result: A
(A: 2.5 h, B: 305 h)
